test target: T1, human Claudin 18.2 (hCLDN18.2) (human, UniProt P56856-2 1-261)
T1 construct: whole, on cells; also called CLDN18A2; claudin 18 splice variant 2
assay: FACS, HEK293-hCLDN18.2 cells
As shown below, each of these binders has a reported Mean maximum fluorescence intensity (Top MFI) value.
endpoint name: Mean maximum fluorescence intensity (Top MFI)

• ch-76D11 (antibody, V domains shown, also called chimeric antibody of clone 76D11) VH: QVQLQQSGAELMKPGASVKLSCKASGYTFTGYWIEWIKQRPGHGLEWIGEILPGSGSIKYNEKFKDKATFTADTSSNTAYMQLSSLTTEDSAIYYCARKGLRGNSFDYWGQGTTLTVSS VL: DIVMTQSPSSLTVTAGEKVTMSCKSSQSLLNSGNQKNYLTWYQQKPGQPPKRLIYWASTRESGVPDRFTGSGSGTDFTLTISSVQAEDLAVYYCQNDYYYPFTFGSGTKLEIK = 8720
• ch-252F11 (antibody, V domains shown, also called chimeric antibody of clone 252F11) VH: EIQLVESGGGLVRPGGSLKLSCAASGFSFKNYVMSWVRQSPERRLEWVAEIRTGGDYTYYVDTVTGRFTISRDNAKNTLYLEMTSLRSEDTATYYCARVGYGNSLDYWGQGTTLTVSS VL: DIVMTQSPSSLTVTAGEKVTMSCKSSQSLLNSGNQKNYLTWYQQKPGQPPKLLIYWASTRESGVPDRFTGSGSGTDFTLTISSVQAEDLAVYSCQNNYFYPLTFGAGTELELK = 8380
